# target-system: Induced myeloid leukemia cell differentiation protein Mcl-1 (Homo sapiens) (UniProt Q07820)
# Sequence (Q07820 whole entry, looked up): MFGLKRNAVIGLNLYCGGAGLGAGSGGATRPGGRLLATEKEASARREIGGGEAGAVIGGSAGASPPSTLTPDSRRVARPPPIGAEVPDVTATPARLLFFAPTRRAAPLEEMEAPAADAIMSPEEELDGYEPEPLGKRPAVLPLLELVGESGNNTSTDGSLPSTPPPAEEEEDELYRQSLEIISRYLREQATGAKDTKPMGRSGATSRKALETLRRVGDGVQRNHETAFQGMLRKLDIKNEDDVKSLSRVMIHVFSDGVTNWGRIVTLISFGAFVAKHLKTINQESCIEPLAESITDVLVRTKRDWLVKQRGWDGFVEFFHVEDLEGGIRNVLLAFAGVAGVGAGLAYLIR
# assay-method-text: blockers of Bid binding to Mcl-1 – biochemical, TR-FRET, dose response (AID 1418)
# condition-description: Mcl-1/Bid peptide binding, TR-FRET (europium/Dy647), 2 hr
Activity calls are given as the source filed them. How the calls were made is not given here.
Labels: active, inactive

compound | label-value
O=[N+]([O-])c1ccc(N/N=C/c2cn(Cc3ccc(F)cc3)c3ccccc23)nc1 | inactive
N#Cc1ccc(CO/N=C/c2ccccc2)cc1 | inactive
Cc1ccc2c(c1)C1C=CCC1C(C(=O)O)N2 (stereo not drawn) | active
Cc1ccc(CNC(=O)CCS(=O)(=O)c2cccc3nonc23)cc1 | inactive
O=c1c2ccccc2nc(/C=C/c2cccnc2)n1CCc1ccccc1 | active
CN(C1=NC(=O)CS1)c1ccc(O)cc1 | inactive
CCCCOc1ccc(CC2C(=O)N(C)C(=O)N(C)C2=O)cc1 | inactive
NS(=O)(=O)c1ccc(CCNC(=O)C(=O)c2c[nH]c3ccccc23)cc1 | inactive
O=c1/c(=C\c2cc([N+](=O)[O-])cc([N+](=O)[O-])c2O)sc2nc3ccccc3n12 | active
CC1=NN(c2ccccc2)C(=O)/C1=C\c1cn(-c2ccccc2)nc1C | inactive
O=C(CCN1CCc2ccccc2C1)Nc1cccc(F)c1 | inactive
Oc1cc2c(cc1C(c1ccc(Cl)c(Cl)c1)N1CCCC1)OCO2 (stereo not drawn) | active
O=C(C[n+]1cc(-c2ccccc2)n2c1CCC2)N1c2ccccc2Sc2ccccc21 | inactive
CN(CCN(C)C(C)(C)C)C(=O)C(c1ccccc1)c1ccccc1 | inactive
CN1C(=S)N(c2cccnc2)C(=O)/C1=C\c1ccc(N(C)C)cc1 | active
O=C(CSc1nnc(SCc2ccc(Cl)cc2)s1)N/N=C/c1c[nH]c2ccccc12 | active
COc1ccc(C(=O)NCc2nnc(SCC(=O)N3CCCCC3)o2)cc1OC | inactive
CN1C(=O)/C(=C2\SC(=S)N(CCCCCC(=O)O)C2=O)c2ccccc21 | active
O=C1Nc2ccccc2/C1=N/N=C/c1ccc(-c2ccc([N+](=O)[O-])cc2)o1 | active
O=C(NCCc1csc(-c2cccnc2)n1)c1cccs1 | inactive
O=C1c2ccccc2C(=O)C1Cc1cccc2ccccc12 | active
Nc1c(C(=O)NCCc2ccccc2)c2nc3ccccc3nc2n1CCN1CCOCC1 | inactive
CCOC(=O)c1sc(N2N=C(C)C(N=Nc3cccc(C)c3)C2=O)nc1C (stereo not drawn) | active

====

# target-system: Induced myeloid leukemia cell differentiation protein Mcl-1 (Homo sapiens)
# assay-method-text: blockers of Bid binding to Mcl-1 – biochemical, TR-FRET, dose response (AID 1418)
# condition-description: Mcl-1/Bid peptide binding, TR-FRET (europium/Dy647), 2 hr
Active and inactive are the calls of the source. The rule behind the calls is not given here.
The reader will find reported IC50 values listed item by item below.
observable: IC50

compound | observable | result
O=C(COC(=O)c1ccc2ccccc2c1)NCCCc1ccccc1 | IC50 | > 54 µM (inactive)
CCOc1cc(N2CCOCC2)c(OCC)cc1NC(=O)c1cc(-c2ccco2)nc2ccccc12 | IC50 | 12.5 µM
Cc1ccc(-c2nc(SCC(=O)Nc3ccccc3OC(F)F)c3c(C)c(C(=O)O)sc3n2)cc1 | IC50 | > 54 µM (inactive)
O=C(O)COc1ccccc1C(Nc1cccnc1)c1cc(Cl)c2cccnc2c1O (stereo unspecified) | IC50 | 2.52 µM
CCOC(=O)c1ccccc1NC(=O)c1nc2nccc(C)n2n1 | IC50 | > 54 µM (inactive)
COC(=O)c1cccc(OCC(O)Cn2ccnc2)c1 (stereo unspecified) | IC50 | > 54 µM (inactive)
O=C(c1cnn2c(C(F)(F)F)cc(-c3cccs3)nc12)N1CCOCC1 | IC50 | > 54 µM (inactive)
CCOC(=O)c1c(NC(=O)CN(C)C)sc(C(=O)N(CC)CC)c1C | IC50 | > 54 µM (inactive)
C/C(=N/NC(=O)c1cc(-c2cccc([N+](=O)[O-])c2)n[nH]1)c1ccc(Cl)cc1 | IC50 | 2.27 µM
O=C1CSC(=S)N1/N=C/c1ccc(O)c(O)c1O | IC50 | 1.17 µM
COc1ccc(C2CC(c3ccccc3)Nc3nc(N)nn32)cc1 (stereo unspecified) | IC50 | > 54 µM (inactive)

====

# target-system: Induced myeloid leukemia cell differentiation protein Mcl-1 (Homo sapiens) (UniProt Q07820)
# assay-method-text: blockers of Bid binding to Mcl-1 – biochemical, TR-FRET, dose response (AID 1418)
# condition-description: Mcl-1/Bid peptide binding, TR-FRET (europium/Dy647), 2 hr
Calls of active or inactive are those of the source. No rule for the calls is given here.
Classes used: 1 (active), 0 (inactive)

compound | label-value
CCOC(=O)c1c2ccc(OCC(=O)N/N=C/c3ccc(C)cc3)cc2n2ccccc12 | 1
Cc1ccc(C(=O)NNC(=O)CSc2nnc3c(n2)[nH]c2ccc(F)cc23)cc1 | 0
O=C(Nc1cccc(Cl)c1)c1cc(N=Nc2ccc([N+](=O)[O-])cc2Cl)ccc1O | 1
COC(=O)/C=C1/SC(=Nc2ccc(C)cc2C)NC1=O | 0
COc1ccc(N2C(=O)/C(=C/C=C/c3ccccc3[N+](=O)[O-])C(=O)NC2=S)cc1 | 1
COc1ccc(-c2cc3nc4ccccc4n3c(N)c2C#N)cc1 | 1
COC(=O)CSc1nc(C)c(C)c(C)c1C(N)=O | 0
CCOC(=O)c1cccc(NC(=O)CCNS(=O)(=O)c2ccc3c(c2)CCN3C(=O)CC)c1 | 0
CC(C)NC(=O)C1CCCN(S(=O)(=O)c2ccc(-n3cnnn3)cc2)C1 (stereo not given) | 0
COC(=O)c1cccc(NC(=S)Nc2cccc(Cl)c2Cl)c1 | 0
C=C(C=O)CC1CC(O)[C@]2(C)OC3CC4OC5C[C@]6(C)O[C@]7(C)CCC8OC9C[C@]%10(C)OC%11C(C)=CC(=O)OC%11CC%10OC9C[C@@H](C)C8OC7CC6O[C@]5(C)CC5OC5C4OC3CC2O1 (stereo not given in full) | 0
O=C1NC(=S)N/C1=C/c1ccc(-c2c(Br)cc([N+](=O)[O-])cc2Br)o1 | 1
C=CCOc1c(OC)cc(/C=N/Nc2cccc(C(=O)O)c2)c(Br)c1Br | 1
COc1cccc2cc(C(=O)Oc3ccc(NC(C)=O)cc3)c(=O)oc12 | 0
O=C(/C=C/Nc1cccc(F)c1)c1ccco1 | 0
O=C(O)CCN1C(=O)/C(=C\c2ccc(-c3nc4ccccc4s3)o2)SC1=S | 1
O=C(c1ccco1)N1C(=O)c2cccc3c(S(=O)(=O)N4CCCC4)ccc1c23 | 0
CCOC(=O)c1cc(-c2ccccc2)n(CC(=O)N2CCCC2)c1C | 0
O=C(CN1C(=O)c2ccccc2C1=O)N1CCCCC1 | 0
COc1ccccc1NC(=O)CSc1nc2ccccc2cc1Cc1ccccc1 | 0

====

# target-system: Induced myeloid leukemia cell differentiation protein Mcl-1 (Homo sapiens) (UniProt Q07820)
# assay-method-text: blockers of Bid binding to Mcl-1 – biochemical, TR-FRET, dose response (AID 1418)
# condition-description: Mcl-1/Bid peptide binding, TR-FRET (europium/Dy647), 2 hr
Calls of active or inactive are those of the source. How the calls were made is not given here.
Possible outcomes: active, inactive

compound | label-value
CSC(=NCc1cccnc1)NS(=O)(=O)c1cccs1 | inactive
O=S(=O)(c1cccc(-c2nnc(SC(F)F)n2-c2ccccc2)c1)N1CCCCC1 | inactive
CCOc1ccc(N/C(=C(/C(Cl)=C(Cl)Cl)[N+](=O)[O-])n2cncn2)cc1 | inactive
O=C(O)c1cc(N2N=C(C(F)(F)F)/C(=C/C=C/c3ccco3)C2=O)ccc1Cl | active
N#C/C(=C1/CCCCCN1)c1nc2ccccc2s1 | inactive
Clc1ccc(OCCCNCc2ccccc2)c(Br)c1 | inactive
COc1cccc(CNc2nc3ccc(C)cc3n3cnnc23)c1 | inactive
O=C(O)c1ccc(NS(=O)(=O)c2cccc3nsnc23)cc1 | inactive
CCOC(=O)c1cc2occc2n1CC(=O)NC1CCCCC1C (stereo unspecified) | inactive
Cc1cc(N/N=C/c2ccc(O)c(C)c2O)nc(-c2ccccc2O)n1 | active
COc1ccc(CN2C(=O)c3cccnc3C2Nc2ccc(OC)c(Cl)c2)cc1 (stereo unspecified) | active

====

# target-system: Induced myeloid leukemia cell differentiation protein Mcl-1 (Homo sapiens) (UniProt Q07820)
# assay-method-text: blockers of Bid binding to Mcl-1 – biochemical, TR-FRET, dose response (AID 1418)
# condition-description: Mcl-1/Bid peptide binding, TR-FRET (europium/Dy647), 2 hr
Active and inactive are the calls of the source. The rule behind the calls is not given here.
Labels: Yes (active), No (inactive)

molecule | label-value
Cc1cccc(C(=O)Nc2ccnc(-c3cccnc3)n2)c1 | No
Cc1c(N=Nc2c(-c3ccc([N+](=O)[O-])cc3)[nH]n(C(N)=S)c2=O)cccc1[N+](=O)[O-] | Yes
COc1ccc(/C=C2\C(=O)NC(=S)N2C(=O)c2ccc(F)cc2)cc1 | Yes
O=c1oc2c(O)c(O)cc3c(=O)oc4c(O)c(O)cc1c4c23 | Yes
CC1=C(SCCC#N)S/C(=C2\SC(C)=C(SCCC#N)S2)S1 | Yes
COCCN1Cc2cccc(C(=O)Nc3cccc(C)c3C)c2C1=O | No
COc1ccc2nc(C)cc(SCC(=O)Nc3c(C)cccc3C)c2c1 | Yes
Cc1cc(=O)oc2cc(OCc3ccc(C(=O)OCC(=O)Nc4ccc(N(C)C)cc4)cc3)ccc12 | Yes
Cc1ccc2nc(SC(C)C(=O)NC3CCCc4ccccc43)[nH]c2c1 (configuration not stated) | No
Nc1nc(SCc2ccc([N+](=O)[O-])cc2)nc2nc3c(cc12)CCCC3 | No
Cc1ccccc1C(=O)Nc1ccc2c(C#N)c3nc4ccccc4nc3n2c1 | Yes
COc1ccc(-c2ccc(/C=C3/C(=N)N4C=CSC4=NC3=O)o2)c([N+](=O)[O-])c1 | Yes
CCSc1nnc(NC(=O)C(Cc2ccccc2)n2cccc2)s1 (configuration not stated) | No
Cc1c(NC(=S)NC(NC(=O)C(C)C)C(Cl)(Cl)Cl)c(=O)n(-c2ccccc2)n1C (configuration not stated) | No
CCC(CC)NC(=O)COC(=O)c1cc(Br)ccc1Cl | No
Cc1cccc(N(CC(=O)Nc2c(C)n(C)n(-c3ccccc3)c2=O)S(C)(=O)=O)c1 | No
COC(=O)c1cc(OC)c(OC)cc1NCC(=O)Nc1ccc(C)cc1 | No
NCCCC[C@H](NC(=O)C1CCNCC1)c1nnc(CN)o1 | No
CCC(CC)C(=O)Oc1c(Sc2ccccc2[N+](=O)[O-])c(C)nn1C(C)(C)C | No
COc1cccc(N2CCN(C(=O)NC3CCCCC3)CC2)c1 | No
FC(F)(F)c1ccncc1-c1nnnn1-c1ccc(Cl)cc1 | No
Cc1ccc(S(=O)(=O)N(CC(=O)N/N=C/c2cccc(Cl)c2)c2cccc3cccnc23)cc1 | No
O=C(O)CCCCCN1C(=O)/C(=C\c2cn(-c3ccccc3)nc2-c2cccs2)SC1=S | Yes
O=C(O)CCN1C(=O)/C(=C/c2cn(-c3ccccc3)nc2-c2cccs2)SC1=S | Yes
Cc1cc(-c2nc3c4c5c(sc4[nH]c(=O)n3n2)CCC5)c(C)o1 | No
O=C(O)CCCCCN1C(=O)/C(=C\c2ccc(-c3ccc(Cl)cc3)o2)SC1=S | Yes
CCCC(=O)Nc1nnc(-c2cccc(OCC)c2)s1 | No
CCC(=NC(C)c1ccccc1)c1c(O)[nH]c(=O)[nH]c1=O (configuration not stated) | Yes
COc1ccccc1CNC(=O)CC(NS(=O)(=O)c1ccc(C)cc1)c1ccco1 (configuration not stated) | No
O=C(Nc1ccc(F)cc1)Nc1ccc(Oc2ncnc3cc(Cl)ccc23)nc1 | No
Cc1ccc(-c2nc(CS(=O)CC(=O)N3CCC4(CC3)OCCO4)c(C)o2)cc1 (configuration not stated) | No
CCOc1cc(N2CCOCC2)c(OCC)cc1NC(=O)CN1CCc2ccccc2C1 | No
O=C1CSC(c2ccncc2)N1Cc1ccccc1 (configuration not stated) | No
Cc1ccc(-c2nnc(N3CC(C)OC(C)C3)c3ccccc23)cc1 (configuration not stated) | No
O=C1C(=Cc2ccc(Br)o2)C(=O)c2ccccc21 | Yes
COc1ccc(N/C(=C(/C(Cl)=C(Cl)Cl)[N+](=O)[O-])n2nnc3ccccc32)cc1OC | No
O=C(N=Nc1c(O)[nH]c2ccc(Cl)cc12)c1cc(-c2cccs2)nc2ccccc12 | Yes
NC(=S)n1[nH]c(-c2ccc([N+](=O)[O-])cc2)c(N=Nc2ccccc2[N+](=O)[O-])c1=O | Yes
Cc1ccc(Cl)c(OCCCN(C)Cc2ccccc2)c1 | No
O=C(O)COc1ccc(/C=N/NC(=O)c2ccc(-c3csc(Nc4ccc(Cl)cc4)n3)cc2)cc1 | Yes
COC(=O)c1ccc(NC(=O)c2ccccc2N(C)S(=O)(=O)c2ccccc2)cc1 | No
O=C(O)c1cccc(N/N=C/C2=C(Cl)c3cc(Cl)ccc3SC2)c1 | Yes

The reported measurements were obtained from PubChem BioAssay AID1418.
